target: UniProtKB P53396; experiment: ACLY-MDH Coupled Assay
pIC50: −log10 of the molar value.
Result Type: pIC50

COC(=O)c1cc(Cl)c(O)c(S(=O)(=O)Nc2cc(-c3cccnc3)ccc2OC)c1 [I-48] :: 4.52 to 6.30
O=S(=O)(c1cc(Cl)cc(Br)c1O)N(Cc1ccccc1)c1cc(-c2ccccc2)ccc1F [I-36] :: 4.52 to 6.30
O=C(O)c1cc(Cl)c(O)c(S(=O)(=O)Nc2cc(-c3ccccc3)cc(F)c2F)c1 [I-115] :: 4.52 to 6.30
COc1ccc(-c2ccccc2)cc1NS(=O)(=O)c1cc(C(=O)NCCN)cc(Cl)c1O [I-64] :: 4.52 to 6.30
O=C(O)COc1c(Cl)cc(Cl)cc1S(=O)(=O)Nc1cc(-c2ccccc2)ccc1F [I-143] :: 4.52 to 6.30
COc1c(Cl)cc(Cl)cc1S(=O)(=O)Nc1cc(-c2ccccc2)ccc1C(=O)O [I-281] :: 6.30 to 7.30
CC(C)(C)OC(=O)NC1CN(C(=O)c2cc(Cl)c(O)c(S(=O)(=O)Nc3cc(-c4ccccc4)c(F)cc3F)c2)C1 [I-201] :: 4.52 to 6.30
COc1ccc(-c2cccs2)cc1NS(=O)(=O)c1cc(Cl)cc(Cl)c1O [I-9] :: 6.30 to 7.30
O=C(O)c1ccc(-c2ccccc2)cc1NS(=O)(=O)c1ccccc1-c1ccno1 [I-336] :: 4.52 to 6.30
O=S(=O)(Nc1cc(-c2ccccc2)ccc1F)c1cc(Br)ccc1O [I-113] :: 4.52 to 6.30

Input: Give recorded pIC50 with UniProtKB P53396 for the following compound: O=C(Nc1cc(-c2cc3ccccc3s2)ccc1C(=O)O)c1cc(Cl)cc(Cl)c1 [I-515]
Output: 4.52 to 6.30

Input: Cool, now O=c1[nH]cc(Cl)cc1S(=O)(=O)Nc1cc(-c2cc3ccccc3s2)ccc1F [I-367]
Output: 4.52 to 6.30

Input: Cool, now CNC(=O)c1cc(Cl)c(O)c(S(=O)(=O)Nc2cc(-c3ccccc3)c(F)cc2F)c1 [I-92]
Output: 6.30 to 7.30

Input: Cool, now COc1ccc(-c2cccnc2)cc1NS(=O)(=O)c1cc(Cl)cc(Cl)c1O [I-7]
Output: 4.52 to 6.30

Input: Cool, now COc1c(Cl)cc(Cl)cc1S(=O)(=O)Nc1cc(-c2cc3ccccc3s2)ccc1C(=O)O [I-297]
Output: 4.52 to 6.30

----------
biological target: ACL (Homo sapiens (Human), UniProt P53396); assay: ACLY-MDH Coupled Assay
Sequence (P53396 whole entry, species assumed): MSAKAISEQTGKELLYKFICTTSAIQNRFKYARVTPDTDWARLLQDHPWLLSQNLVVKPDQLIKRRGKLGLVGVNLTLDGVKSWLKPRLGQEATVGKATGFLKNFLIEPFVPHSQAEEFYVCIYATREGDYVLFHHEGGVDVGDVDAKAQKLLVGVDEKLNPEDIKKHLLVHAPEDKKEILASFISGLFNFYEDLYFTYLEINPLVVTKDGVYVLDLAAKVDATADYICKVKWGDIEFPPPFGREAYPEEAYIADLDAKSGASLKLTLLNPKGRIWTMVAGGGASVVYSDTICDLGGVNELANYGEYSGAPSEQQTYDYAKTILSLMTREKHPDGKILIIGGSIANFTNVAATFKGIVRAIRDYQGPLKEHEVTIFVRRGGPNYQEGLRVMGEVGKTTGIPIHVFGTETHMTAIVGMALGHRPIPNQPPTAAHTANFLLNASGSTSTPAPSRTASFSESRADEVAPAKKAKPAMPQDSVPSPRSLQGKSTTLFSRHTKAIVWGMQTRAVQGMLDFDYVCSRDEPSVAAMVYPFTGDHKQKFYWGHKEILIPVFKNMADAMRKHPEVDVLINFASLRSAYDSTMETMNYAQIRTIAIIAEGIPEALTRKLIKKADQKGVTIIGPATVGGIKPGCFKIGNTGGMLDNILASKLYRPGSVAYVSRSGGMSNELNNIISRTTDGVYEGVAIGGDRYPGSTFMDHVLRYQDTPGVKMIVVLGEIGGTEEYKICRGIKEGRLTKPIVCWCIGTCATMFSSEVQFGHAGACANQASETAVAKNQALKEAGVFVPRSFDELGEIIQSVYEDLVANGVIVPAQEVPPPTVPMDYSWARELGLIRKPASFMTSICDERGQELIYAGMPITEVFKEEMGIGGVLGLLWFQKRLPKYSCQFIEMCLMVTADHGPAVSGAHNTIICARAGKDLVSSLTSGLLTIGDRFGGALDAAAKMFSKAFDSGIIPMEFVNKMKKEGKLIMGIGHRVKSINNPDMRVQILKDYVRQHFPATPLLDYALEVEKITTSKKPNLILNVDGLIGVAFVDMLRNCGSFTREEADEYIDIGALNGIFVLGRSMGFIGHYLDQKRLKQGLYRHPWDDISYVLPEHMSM
Result Type: IC50

O=C(O)c1ccc(-c2ccccc2)cc1NS(=O)(=O)c1c(Cl)nc2ccc(Br)cn12 [I-334] :: 500 to 30000 nM
O=S(=O)(Nc1ccccc1OCc1ccccc1)c1cc(Cl)cc(Cl)c1O [I-15] :: 500 to 30000 nM
CC(C)C(=O)Oc1c(Cl)cc(-c2cncs2)cc1S(=O)(=O)Nc1cc(-c2ccccc2)c(F)cc1F [I-213] :: 50 to 500 nM

Input: Which IC50 value belongs to COC(=O)c1cc(Br)cc(S(=O)(=O)Nc2cc(-c3ccccc3)ccc2C(=O)O)c1 [I-295] ?
Output: 500 to 30000 nM

Input: Cool, now COc1cc(-c2ccccc2)ccc1NS(=O)(=O)c1cc(Cl)cc(Cl)c1O [I-13]
Output: 500 to 30000 nM

Input: Cool, now O=C(O)c1ccc(-c2cccs2)cc1NS(=O)(=O)c1cc(Cl)cc(C(F)(F)F)c1 [I-366]
Output: 50 to 500 nM

Input: Cool, now Cc1sc2ccccc2c1S(=O)(=O)Nc1cc(-c2ccccc2)ccc1C(=O)O [I-333]
Output: 500 to 30000 nM

Input: Cool, now O=C(O)c1cc(Cl)c(O)c(S(=O)(=O)Nc2cc(-c3ccccc3)ccc2F)c1 [I-107]
Output: 500 to 30000 nM

Input: Cool, now Nc1ccc(-c2ccccc2)cc1NS(=O)(=O)c1cc(Cl)cc(Br)c1O [I-53]
Output: 500 to 30000 nM

Input: Cool, now O=C(O)c1ccc(-c2ccccc2)cc1NS(=O)(=O)c1cc(Cl)c[nH]c1=O [I-350]
Output: 500 to 30000 nM
